The origin of these recorded values is ChEMBL document CHEMBL1201862.

tested on: 786-0; assay: NCI tumour cell line growth inhibition, 48 h
Activity calls are given as the source filed them. Cut-off read from the data, not from the text of the source: active = GI50 up to about 1.1 µM and inactive = higher.
Endpoint: GI50

- Molecule: "CC(NC(=O)/C(=C/c1ccccc1)NC(=O)c1ccccc1)C(=O)O (stereo not drawn)"
  Value reported: "39.5 µM (inactive)"
- Molecule: "CCOC(=O)C(OCC1CC=CCC1)Sc1ccccc1 (stereo not drawn)"
  Value reported: "> 100 µM (inactive)"

Shifting focus to the molecule that follows.
Inquiry: Which GI50 is reported with 786-0 for this entry: Cc1cc(OCC(=O)N/N=C/C(Br)=C/c2ccccc2)nc(SCC(=O)N/N=C/C(Br)=C/c2ccccc2)n1 ?
Reply text: 34.8 µM (inactive)

* * *

test system: NCI-H522; assay: NCI tumour cell line growth inhibition, 48 h
Active and inactive are the calls of the source. Cut-off read from the data, not from the text of the source: active = GI50 up to about 1.1 µM and inactive = higher.
Endpoint: GI50

Solved entries:
- Compound: "O=C1C=C2CCCC2C(C(=O)O)(C(=O)O)C1 (stereo unspecified)"
  GI50: "> 100 µM (inactive)"
- Compound: "CCOC(=O)/C(C#N)=C/c1coc2cc(C)cc(C)c2c1=O"
  GI50: "> 100 µM (inactive)"
- Compound: "NC(CCCCO)C(=O)O (stereo unspecified)"
  GI50: "> 100 µM (inactive)"
- Compound: "CCCCCCCCCc1cc(=O)c2c(O)cc(O)cc2o1"
  GI50: "15.1 µM (inactive)"
- Compound: "Cc1ccc(S(=O)(=O)OC2CCN(C)CC2)cc1"
  GI50: "19 µM (inactive)"

Shifting focus to the compound that follows.
Inquiry: Query (compound): CCCC1=C(OC)C(=O)c2c(C)cc(Cl)nc2C1=O ; field requested: GI50
Reply text: 2.43 µM (inactive)

* * *

tested on: SF-295; experiment: NCI tumour cell line growth inhibition, 48 h
Calls of active or inactive are those of the source. Cut-off read from the data, not from the text of the source: active = GI50 up to about 1.1 µM and inactive = higher.
Answer with one of the outcomes given here: true (active), false (inactive)

As a guide, the following entries are already answered.
- Compound: "C/C=C/C(O)P(=O)(OC)OC (centres undefined)"
  Label value: "true"
- Compound: "COC(=O)c1c(O)ccc2c1c1c(n2Cc2ccc(OC)cc2)C(=O)c2ccccc2C1=O"
  Label value: "false"
- Compound: "c1csc(-c2csc(-c3cccs3)c2)c1"
  Label value: "false"

Inquiry: // outcome(item) with item = Cc1cc(OC(=O)Nc2cccc3ccccc23)c(C(C)C)cc1C(=S)Nc1ccccc1
Reply text: true

* * *

Reported GI50 values follow for various compounds
system: UACC-62; assay: NCI tumour cell line growth inhibition, 48 h
The source made the active and inactive calls. No stated cut-off is given here; in the data, active = GI50 up to about 1.1 µM and inactive = higher.

- Compound: "Cn1c(=O)oc2cc(C(O)CN3CCN(Cc4ccccn4)CC3)c(Cl)cc21 (stereo not drawn)"
  Value reported: "> 100 µM (inactive)"

Inquiry: Query (compound): O=C(O)C1CCC(=O)N1C(=O)C(Cl)c1ccccc1 (stereo not drawn) ; field requested: GI50
Reply text: > 100 µM (inactive)

Inquiry: Query (compound): C=C(C(N)=O)c1ccc([N+](=O)[O-])o1 ; field requested: GI50
Reply text: 7.03 µM (inactive)

Inquiry: Query (compound): [O-][N+]1=C2CCC/C(=N/O)C2(O)C2CCCCC21N1CCOCC1 (stereo not drawn) ; field requested: GI50
Reply text: > 100 µM (inactive)

Inquiry: Query (compound): O=C1C=CC(=O)C(CNc2ccc(C(=O)OC34CC5CC(CC(C5)C3)C4)cc2)=C1Br ; field requested: GI50
Reply text: 7.38 µM (inactive)

Inquiry: Query (compound): COc1ccc2c(c1)[nH]c1c3ccc(OC)cc3oc(=O)c21 ; field requested: GI50
Reply text: > 100 µM (inactive)

Inquiry: Query (compound): O=c1[nH]c(=O)n(C2CC(O)C(CO)O2)cc1C1=NC1 (stereo not drawn) ; field requested: GI50
Reply text: > 100 µM (inactive)
